Data credit: the supplement of paper PMC10065799

# Tested target: c-Src SH2;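 further: peptide library displayed on the E. coli surface as eCPX fusions, selected cells deep-sequenced, score is each peptide's frequency after selection divided by its frequency in the input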
# Assay method text: SH2 binding enrichment of the phosphorylated peptide, bacterial display (enrichment ratio); higher = better substrate or ligand; peptides without Tyr show the background
Metric name: SH2 binding enrichment

Worked cases, answers included:
- Sequence string: "LAGRFYALKSM [CKB_Y174_YF]"
  SH2 binding enrichment: 1.12
- Sequence string: "TVQVAYFTVMM [SPATA17_Y83_M86V_YF]"
  SH2 binding enrichment: 0.415
- Sequence string: "DFLEKYFKFGC [NNMT_Y24_S29C_YF]"
  SH2 binding enrichment: 0.674
- Sequence string: "EDGCIYPATIA [SMN1_Y109]"
  SH2 binding enrichment: 0.589
- Sequence string: "MTFQNYGQALF [FAM20C_Y279]"
  SH2 binding enrichment: 0.515

(a) RSSNTYTLTDV [ALCAM_Y298]
(b) LVRAFYCERRW [CARD11_Y970_R975W]
(c) SVVVPYELPEV [TP53_Y220_P222L]
(d) IVKAFYVHARA [AIPL1_Y268_R270H_YF]
(e) MEIHAYHKLLE [LMNA_Y376_R377H]
Put the items in order so that reported SH2 binding enrichment rises from first to last. List the labels in the requested order. b, d, a, c, e

(A) TSESSYFKSLN [NGEF_Y288_A286S_YF]
(B) RARPPYTVAAD [ANKZF1_Y572]
Please indicate which item has the smaller measured SH2 binding enrichment: A versus B Answer by stating the label of the chosen item. A

(A) MQMEEYRGWVE [BTNL2_Y91]
(B) KLNNEHLELNY [MME_Y497_Y497H]
(C) KMTGRYEMFAR [UPB1_Y362_YF]
(D) DNPAKYFILEN [DPP10_Y512_S517N]
Could you please sort these 4 entries by SH2 binding enrichment from high to low? // respond by listing labels in the order requested C, D, B, A
(C: 1.75, D: 0.828, B: 0.573, A: 0.391)
